TARGET_UNDER_TEST: T1, Human CD24 (human, UniProt P25063 27-59, limits assumed)
T1 chain (looked up): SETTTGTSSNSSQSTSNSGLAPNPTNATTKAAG
PROTOCOL: SPR affinity ranking, 1:1 binding, analyte conc. 19.71 nM
MEASURED_PROPERTY: kon (M⁻¹ s⁻¹)
The response must be a number in M⁻¹ s⁻¹ with no trailing unit.

BINDER	MEAS_VALUE
Antibody No 8, lead clone of 4451H (HC T59Y; LC K27A, T97I) (antibody, V domains shown) VH: QVQLVQSGAEVKKPGASVKVSCKASGYDFTGYHMNWVRQAPGQGLEWMGEINPITSDKYFNQKFKSRVTMTRDTSISTAYMELSRLRSDDTAVYYCARRDYGTSLDYWGQGTTVTVSS VL: DIQLTQSPSFLSASVGDRVTITCRASASISKYLAWYQQKPGKAPKLLIYAGSTLHSGIPSRFRGSGSGTEFTLTISSLQPEDFATYYCQQHNEYPIIFGQGTKLEIK	1.24e+06
Antibody No 9, lead clone of 4451H (HC T59Y; LC S30K, T97I) (antibody, V domains shown) VH: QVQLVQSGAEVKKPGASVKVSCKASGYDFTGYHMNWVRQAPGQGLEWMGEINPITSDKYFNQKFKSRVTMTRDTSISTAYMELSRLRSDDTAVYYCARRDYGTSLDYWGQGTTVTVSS VL: DIQLTQSPSFLSASVGDRVTITCRASKSIKKYLAWYQQKPGKAPKLLIYAGSTLHSGIPSRFRGSGSGTEFTLTISSLQPEDFATYYCQQHNEYPIIFGQGTKLEIK	5.27e+06
Antibody No 5, lead clone of 4451H (HC N35G; LC S30K) (antibody, V domains shown) VH: QVQLVQSGAEVKKPGASVKVSCKASGYDFTGYHMGWVRQAPGQGLEWMGEINPITSDKTFNQKFKSRVTMTRDTSISTAYMELSRLRSDDTAVYYCARRDYGTSLDYWGQGTTVTVSS VL: DIQLTQSPSFLSASVGDRVTITCRASKSIKKYLAWYQQKPGKAPKLLIYAGSTLHSGIPSRFRGSGSGTEFTLTISSLQPEDFATYYCQQHNEYPITFGQGTKLEIK	4.37e+06
Antibody No 15 (4451HM15), lead clone of 4451H (HC N35G, T59Y; LC K27A) (antibody, V domains shown) VH: QVQLVQSGAEVKKPGASVKVSCKASGYDFTGYHMGWVRQAPGQGLEWMGEINPITSDKYFNQKFKSRVTMTRDTSISTAYMELSRLRSDDTAVYYCARRDYGTSLDYWGQGTTVTVSS VL: DIQLTQSPSFLSASVGDRVTITCRASASISKYLAWYQQKPGKAPKLLIYAGSTLHSGIPSRFRGSGSGTEFTLTISSLQPEDFATYYCQQHNEYPITFGQGTKLEIK	1.07e+06
Antibody No 3, lead clone of 4451H (HC N35G; LC L33G, T97I) (antibody, V domains shown) VH: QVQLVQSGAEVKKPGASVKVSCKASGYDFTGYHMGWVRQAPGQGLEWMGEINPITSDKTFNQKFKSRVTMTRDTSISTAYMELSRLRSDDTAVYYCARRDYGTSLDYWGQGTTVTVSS VL: DIQLTQSPSFLSASVGDRVTITCRASKSISKYGAWYQQKPGKAPKLLIYAGSTLHSGIPSRFRGSGSGTEFTLTISSLQPEDFATYYCQQHNEYPIIFGQGTKLEIK	1.17e+06

Now examine the next entry.
Req: Indicate its recorded kon; the binder in question is Antibody No 1, lead clone of 4451H (HC N35G; LC K27A, T97I) (antibody, V domains shown) VH: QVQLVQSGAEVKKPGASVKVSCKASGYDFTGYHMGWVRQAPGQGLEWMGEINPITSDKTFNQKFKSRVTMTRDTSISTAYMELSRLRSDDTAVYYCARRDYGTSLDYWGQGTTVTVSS VL: DIQLTQSPSFLSASVGDRVTITCRASASISKYLAWYQQKPGKAPKLLIYAGSTLHSGIPSRFRGSGSGTEFTLTISSLQPEDFATYYCQQHNEYPIIFGQGTKLEIK
Resp: 1.26e+06
